# ASSAY_METHOD_TEXT: Intrinsic hepatic clearance in dog
# Assay type: ADME, Canis lupus familiaris
# MEASUREMENT_SETUP: in vivo, read-out: CLH
QUANTITY_KIND: CLint scaled (mL/min/kg)

* CC(O)(C#Cc1ccc2nccc(-c3cn[nH]c3)c2c1)c1nccs1 (stereo unspecified) | 140

====

# ASSAY_METHOD_TEXT: Intrinsic hepatic clearance in human
# Assay type: ADME
# MEASUREMENT_SETUP: read-out: CLH
QUANTITY_KIND: CLint scaled (mL/min/kg)

- CC(O)(C#Cc1ccc2nccc(-c3cn[nH]c3)c2c1)c1nccs1 (stereo unspecified): 40.2
